Biological target: recombinant pentameric gH complex (Towne strain) (human cytomegalovirus, Towne strain) (UniProt P17176)
Sequence (P17176 30-715, one chain of several): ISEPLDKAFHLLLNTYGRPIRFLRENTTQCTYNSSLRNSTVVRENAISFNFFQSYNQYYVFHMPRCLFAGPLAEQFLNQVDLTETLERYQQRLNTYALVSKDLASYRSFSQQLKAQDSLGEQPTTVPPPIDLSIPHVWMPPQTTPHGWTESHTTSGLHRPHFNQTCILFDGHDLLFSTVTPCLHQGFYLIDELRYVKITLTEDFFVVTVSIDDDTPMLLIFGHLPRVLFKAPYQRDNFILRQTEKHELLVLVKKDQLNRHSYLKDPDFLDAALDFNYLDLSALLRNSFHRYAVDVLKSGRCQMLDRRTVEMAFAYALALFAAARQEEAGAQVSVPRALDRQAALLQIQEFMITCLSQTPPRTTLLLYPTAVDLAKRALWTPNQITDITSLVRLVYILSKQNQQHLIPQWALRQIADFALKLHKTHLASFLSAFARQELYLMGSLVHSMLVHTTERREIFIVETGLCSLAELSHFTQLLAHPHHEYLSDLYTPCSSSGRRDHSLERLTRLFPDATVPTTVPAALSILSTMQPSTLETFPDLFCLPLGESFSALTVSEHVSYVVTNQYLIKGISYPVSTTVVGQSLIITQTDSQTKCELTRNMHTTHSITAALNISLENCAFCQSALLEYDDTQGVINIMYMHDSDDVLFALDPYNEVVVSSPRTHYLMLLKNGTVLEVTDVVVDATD
Test: BLI competition on His-pentamer; competitor (antibody 2): 1-103
attribute measured: Pair-wise inhibition (%)
One number for each entry, in %.

1-85 (antibody, V domains shown) VH: QVHLVESGGGLVKPGRSLRLSCAASGFTFSDYYMAWIRQVPGKGLEWVSFISSSGRTIYYADSVKGRFTISRDNAKDSLYLQMHSLRAEDTAVYYCARDSYSKLVDIEAIEAFDIWGRGTMVTVSS VL: SYELAQPPSVSVAPGKTATIACGGDNIGGKSVHWYLQKAGQAPVLVISYDSDRPSGIPERFSGSNSGNTATLTISRVEAGDEADYFCQVWDRHGDHVVFGGGTKLTVL = 27

Quick one: give me Pair-wise inhibition (%) for each item below, same order please.
1. 3-7 (antibody, V domains shown) VH: QVQLVQSGAEVKKPGASVKVSCKTSGYTFNTYAISWVRQAPGQGLEWVGWINTYSGSTKYAQKVQGRVTMTTDTSTSTAYMELRGLRSDDTAVYYCARDGYNWGFLDFWGQGSLVTVSS VL: DIQMTQSPSSLSASVGDRVTITCRASQGISNYLAWYQQKPGKLPKLLIYAASTLQSGVPSRFSGSGSGTDFTLTISSLQPEDVASYYCQKYNSAPLTFGPGTKVDIK
2. 3-16 (antibody, V domains shown) VH: QVQVVQSGAEVKKPGASVMVSCKTSGYRFTIYSIAWMRQAPGQGLEWMGSINTYNGNTKYAEKFQGRVTMSRDTSTSTAYMEVRSLGSADTAMYYCARDAENWGFFDDWGQGTLVTVSS VL: EIVLTQSPGTVSLSPGERVTLSCRASQSVGRHLAWYQQKPGQPPRLLIYGASTRATGVPDRFSGSGSETEFTLAISSLQSEDFALYYCQQYNTWPYTFGQGTKLEIK

// result
27
6
